Assignment: determine reported log10 of Ki for the given molecules.
Molecular target: Delta-type opioid receptor (Rattus norvegicus, UniProt P33533)
Sequence (P33533 whole entry): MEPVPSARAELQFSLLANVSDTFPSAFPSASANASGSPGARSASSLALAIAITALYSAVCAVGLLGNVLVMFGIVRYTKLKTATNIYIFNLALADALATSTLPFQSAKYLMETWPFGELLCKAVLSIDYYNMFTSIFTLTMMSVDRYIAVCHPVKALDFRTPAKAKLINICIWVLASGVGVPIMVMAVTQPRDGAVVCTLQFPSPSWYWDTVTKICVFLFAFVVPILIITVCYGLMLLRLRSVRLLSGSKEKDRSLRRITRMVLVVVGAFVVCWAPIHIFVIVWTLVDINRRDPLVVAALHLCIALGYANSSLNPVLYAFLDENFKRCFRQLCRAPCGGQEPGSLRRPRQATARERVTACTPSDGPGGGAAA
Test: In vitro binding affinity at opioid receptor delta 1 was determined in C6 rat glioma cells using [3H]Ile5,6 deltorphin II
Assay type: cell-based
Could you please treat all values as log10 of Ki in nM?

Q: Enter reported log10 of Ki observed with Delta-type opioid receptor (Rattus norvegicus, UniProt P33533) for O=C1CC[C@@]2(OCCCc3ccccc3)[C@H]3Cc4ccc(O)c5c4[C@@]2(CCN3CC2CCCO2)[C@H]1O5 (stereo partly specified)
A: -1.05

Q: Enter reported log10 of Ki observed with Delta-type opioid receptor (Rattus norvegicus, UniProt P33533) for O=C1CC[C@@]2(OCCCc3ccccc3)[C@H]3Cc4ccc(O)c5c4[C@@]2(CCN3CC2CCC2)[C@H]1O5
A: -0.34

Q: Enter reported log10 of Ki observed with Delta-type opioid receptor (Rattus norvegicus, UniProt P33533) for CCCN1CC[C@]23c4c5ccc(O)c4O[C@H]2C(=O)CC[C@@]3(OCCCc2ccccc2)[C@H]1C5
A: -0.03

Q: Enter reported log10 of Ki observed with Delta-type opioid receptor (Rattus norvegicus, UniProt P33533) for C=CCN1CC[C@]23c4c5ccc(O)c4O[C@H]2C(=O)CC[C@@]3(OCCCc2ccccc2)[C@H]1C5
A: -0.59

Q: Enter reported log10 of Ki observed with Delta-type opioid receptor (Rattus norvegicus, UniProt P33533) for CO[C@@]12CCC(=O)[C@]3(C)Oc4c(O)ccc5c4[C@@]31CCN(C)[C@@H]2C5
A: 1.61

Q: Enter reported log10 of Ki observed with Delta-type opioid receptor (Rattus norvegicus, UniProt P33533) for COc1ccc2c3c1O[C@H]1C(=O)CC[C@@]4(OCCCc5ccccc5)[C@@H](C2)N(CC2CCCO2)CC[C@]314 (stereo partly specified)
A: 0.79
